These data points were gathered from patent US20240343803A1.

- Test Target: T1, human PVRIG-mFc protein (Acro, PVG-H5253) (human, UniProt Q6DKI7 41-171, limits assumed)
- T1 construct: extracellular domain; Bought protein; also called PVRIG-ECD-mFc; not shown: mouse Fc tag of the bought protein
- T1 sequence (looked up): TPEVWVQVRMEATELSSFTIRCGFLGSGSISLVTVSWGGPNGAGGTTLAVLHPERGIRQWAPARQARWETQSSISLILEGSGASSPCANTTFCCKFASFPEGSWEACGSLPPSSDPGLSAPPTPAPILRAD
- Experiment Description: FACS blocking of PVRIG-mFc binding to CHO-K1-CD112 cells; competitor CD112
Measured Attribute: % IC50 to COM701-hIgG4 (%)
Field: numeric (%). Do not append units.

Requested read-out: % IC50 to COM701-hIgG4. Entry: PVRIG-A50-H1 (Fc fusion, VHH-human IgG1 Fc format is stated for the parental VHH antibodies; not restated for the humanized variants; also called A50.VH1; not shown: human IgG1 hinge-CH2-CH3 (Fc)) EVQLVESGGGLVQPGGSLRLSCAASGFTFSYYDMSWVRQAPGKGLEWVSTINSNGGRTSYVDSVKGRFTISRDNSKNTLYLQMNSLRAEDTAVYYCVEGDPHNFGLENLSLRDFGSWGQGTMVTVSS
101

Now the binder PVRIG-A105-H2 (Fc fusion, VHH-human IgG1 Fc format is stated for the parental VHH antibodies; not restated for the humanized variants; also called A105 VH2; not shown: human IgG1 hinge-CH2-CH3 (Fc)) EVQLVESGGGLVQPGGSLRLSCAASGRTFDRHTMTWFRQAPGKEREFVATASRIPGDTYYVDSVKGRFTISRDNAKNSLYLQMNSLRAEDTAVYYCAATSAYCSEVDCYEKGSWYDNWGQGTMVTVSS
109
